I'd appreciate it if you could supply fold over background (A450) values for the items below.
- TARGET DESC: T1, human TREM2 full length stalk region peptide (aa 129-172) (human, biotinylated (site not stated))
- T1 construct: also called Human TREM2 peptide (aa 129-172); full-length TREM2 stalk peptide
- T1 peptide: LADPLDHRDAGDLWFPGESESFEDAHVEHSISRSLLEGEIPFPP
- ASSAY PROTOCOL: ELISA on biotinylated peptide captured by streptavidin; A450 normalised to isotype control
Answer with the number, then the unit.

Query: Value lookup for fold over background (A450); key = CL0020313 (antibody, V domains shown, also called Clone CL0020313) VH: QVQLKQSGPGLLQPSQSLSITCTVSGFSLTSYGVHWVRQSPGKGLEWLGVIWSGGITLYNAAFMSRLSITKDNSKSQVFFKMNSLQADDTAIYYCAKVGYGSSSDYWGQGTTLTVSS VL: DVLMTQSPLSLPVSLGDQASFSCRSSQSIVHSNGNTYLEWYLQKPGQSPKLLIYKVSNRFSGVPDRFSGSGSGTDFTLKISRVEAEDLGVYYCFQGSHVPFTFGSGTKLEIK
Result: 12 fold

Query: Value lookup for fold over background (A450); key = CL0020113 (antibody, V domains shown, also called Clone CL0020113) VH: QIQLVQSGPELKKPGESLKISCKASGYTFTDYAMQWVKQAPGKGLQYMGWINTQTGKPTYADDFKERFVFSLETSASTAYLKINNLKNDDMATYLCARSYGGEYNWIAYWGQGTLVTVSS VL: DIVMTQTPSSQAVSAGEKVTMNCKSSQSLLYNENKKNYLAWYQQKPGQSPKLLIYWASTRESGVPDRFIGSGSGTDFTLTISSVQAEDLAVYYCQQSYNFPPTFGGGTKLELK
Result: 47 fold

Query: Value lookup for fold over background (A450); key = CL0020215 (antibody, V domains shown, also called Clone CL0020215) VH: QVQLQQPGAELVKPGASVKMSCKASGYTFTNYWIMWVKQRPGQGLEWIGDIYPSSGSTNYNEKFKNRATLTVDTSSNTAYMQLSSLTSEDSAVYFCSREGYGISAWGQGTTLTVSS VL: QIVLTQSPAIMSASPGEKVTITCSASSSVSYMHWFQQKPGTSPKLWIYSTSNLASGVPARFSGSGSGTSCSLTISRMEAEDAATYYCQQRSSFPLTFGAGTKLELK
Result: 1.2 fold
